List of IC50 values.
System Name: Human LDHA (Homo sapiens (Human), UniProt P00338)
Test Name: human LDHA primary biochemical assay (resazurin/diaphorase coupled, fluorescence)
Assay Conditions: LDHA inhibitory activity, activity level based on IC50 (Table 7)

// worked examples, IC50 included
{"columns": ["Smiles String", "IC50"],
 "data": [
  ["N[S+](=O)([O-])c1ccc(Cc2c(-c3ccc(F)c(C4CC4)c3)nn(-c3nc(C(=O)O)cs3)c2CC2CC2)cc1F", "< 100 nM"],
  ["NS(=O)(=O)c1ccc(Cc2c(CC3CC3)nn(-c3nc(C(=O)O)cs3)c2-c2cc(F)cc(-c3cccc(F)c3)c2)cc1", "1000 to 57000 nM"]
]}

Next compound, IC50 to be filled in.
Field request: IC50 | item: N[S+](=O)([O-])c1ccc(Cc2c(-c3cccc(S(F)(F)(F)(F)F)c3)nn(-c3nc(C(=O)O)cs3)c2CC2CC2)cc1F
< 100 nM

---

System Name: UniProt P00338
Test Name: human LDHA primary biochemical assay (resazurin/diaphorase coupled, fluorescence)
Assay Conditions: read-out: Inhibitory activity IC50
pIC50: −log10 of the molar value.
The entries below are paired with their reported pIC50.

Look over these answered cases.
{"columns": ["Smiles String", "pIC50"],
 "data": [
  ["Nc1ncnc2c(-n3cc(Cc4ccc(S(N)(=O)=O)cc4)c(-c4ccccc4)n3)csc12", "4.24 to 6.00"],
  ["N[S+](=O)([O-])c1ccc(Cc2c(CC3CC3)nn(-c3nc(C(=O)O)cs3)c2-c2ccc(F)c(-c3cccc(F)c3)c2)c(F)c1", "4.24 to 6.00"],
  ["Cc1ccc(-c2cc(-c3c(Cc4ccc(S(N)(=O)=O)c(F)c4)c(CC4CC4)nn3-c3nc(C(=O)O)cs3)ccc2F)s1", "< 4.24"],
  ["CCOC(=O)c1csc(-n2nc(-c3cccc(-c4ccccc4)c3)c(Cc3ccc(S(N)(=O)=O)cc3)c2O)n1", "4.24 to 6.00"],
  ["Cc1cccc(C(=O)n2nc(-c3ccccc3)c(Cc3ccc(S(N)(=O)=O)cc3)c2N)c1", "4.24 to 6.00"]
]}

State the recorded pIC50 for this entry: NC(=O)c1csc(-n2nc(-c3ccccc3)c(Cc3ccc(S(N)(=O)=O)cc3)c2I)n1
4.24 to 6.00

Same question for Cc1csc(-c2cc(-c3nn(-c4nc(C(=O)O)cs4)c(CC4CC4)c3Cc3ccc(S(N)(=O)=O)cc3F)ccc2F)c1 please.
> 7.00

---

pIC50 by entry:
System Name: Human LDHA (Homo sapiens (Human))
Test Name: human LDHA primary biochemical assay (resazurin/diaphorase coupled, fluorescence)
Assay Conditions: LDHA inhibitory activity, activity level based on IC50 (Table 7)
pIC50: −log10 of the molar value.

Consider the worked cases shown below.
{"columns": ["Molecule", "pIC50"],
 "data": [
  ["CCOC(=O)c1csc(-n2nc(-c3ccc(F)c(C#CC4CCCC4)c3)c(Cc3cccc(S(N)(=O)=O)c3)c2CC2CC2)n1 [Compound 536]", "< 4.24"],
  ["CCCC#Cc1cc(-c2nn(-c3nc(C(=O)O)cs3)c(CC3CC3)c2Cc2ccc(S(N)(=O)=O)c(F)c2)ccc1F [Compound 539]", "> 7.00"],
  ["CCOC(=O)c1csc(-n2nc(-c3cccc(C#CC4CCCC4)c3)c(Cc3ccc(S(N)(=O)=O)c(F)c3)c2CC2CC2)n1 [Compound 428]", "< 4.24"]
]}

Which pIC50 value belongs to CC(F)C#Cc1cc(-c2nn(-c3nc(C(=O)O)cs3)c(CC3CC3)c2Cc2ccc([S+](N)(=O)[O-])c(F)c2)ccc1F (centres unmarked) [Compound 443] ?
> 7.00

Field entry: Cc1ccc(-c2cc(-c3nn(-c4nc(C(=O)O)cs4)cc3Cc3ccc(S(N)(=O)=O)cc3)ccc2F)cc1C [Compound 516]
6.00 to 7.00

And for CC(C)=Cc1cc(-c2nn(-c3nc(C(=O)O)cs3)c(CC3CC3)c2Cc2ccc(S(N)(=O)=O)c(F)c2)ccc1F [Compound 530] ?
> 7.00

And NS(=O)(=O)c1ccc(Cc2c(-c3cccc(N4CCC(C(F)(F)F)CC4)c3)nn(-c3nc(C(=O)O)cs3)c2CC2CC2)cc1F [Compound 392] ?
> 7.00

CNS(=N)(=O)c1ccc(Cc2c(-c3ccc(F)c(-c4cccc(F)c4)c3)nn(-c3nc(C(=O)O)cs3)c2CC2CC2)cc1F (centres unmarked) [Compound 389] ?
6.00 to 7.00

Next molecule: N[S+](=O)([O-])c1ccc(Cc2c(-c3ccc(F)c(C4=CCN(C(=O)C5CC5)CC4)c3)nn(-c3nc(C(=O)O)cs3)c2CC2CC2)cc1F [Compound 380]
> 7.00

Check N[S+](=O)([O-])c1ccc(Cc2c(-c3ccc(F)c(C4CCC4)c3)nn(-c3nc(C(=O)O)cs3)c2CC2CC2)cc1F [Compound 382] too.
> 7.00

Repeat for the following molecule: CC(C)(C)Cc1cc(-c2nn(-c3nc(C(=O)O)cs3)c(CC3CC3)c2Cc2ccc(S(N)(=O)=O)c(F)c2)ccc1F [Compound 386]
> 7.00

Next molecule: COc1cccc(-c2cccc(-c3nn(-c4nc(C(=O)O)cs4)c(C4CC4)c3Cc3ccc(S(N)(=O)=O)cc3F)c2)c1 [Compound 361]
> 7.00

---

System Name: Human LDHA (Homo sapiens (Human), UniProt P00338)
Test Name: human LDHA primary biochemical assay (resazurin/diaphorase coupled, fluorescence)
Assay Conditions: LDHA inhibitory activity, activity level based on IC50 (Table 7)
Excerpt: Test compounds were placed in a Greiner Bio-One (Monroe, N.C.) 1536-well black solid bottom assay plate. 200 millimolar (mM) Tris HCl, pH 7.4, 100 micromolar […] EDTA and 0.01% TWEEN-20™, final concentration, was used as the assay buffer. The LDHA reagent was 2 nanomolar (nM) Human LDHA (Meridian Life Science, Inc., Memphis, Tenn.), final concentration, in assay buffer.
Parameter Measured: IC50

In the examples that follow, each entry is paired with its recorded IC50.
{"columns": ["Compound", "IC50"],
 "data": [
  ["N[S+](=O)([O-])c1ccc(Cc2c(-c3ccc(F)c(C#CCCO)c3)nn(-c3nc(C(=O)O)cs3)c2CC2CC2)cc1F [Compound 409]", "< 100 nM"],
  ["NS(=O)(=O)c1ccc(Cc2c(-c3ccc(F)c(OCC4CCOC4)c3)nn(-c3nc(C(=O)O)cs3)c2CC2CC2)cc1F (stereo not shown) [Compound 470]", "< 100 nM"],
  ["N[S+](=O)([O-])c1ccc(Cc2c(CC3CC3)nn(-c3nc(C(=O)O)cs3)c2-c2ccc(C(O)(C3CC3)C(F)(F)F)cc2)cc1F (stereo not shown) [Compound 399]", "1000 to 57000 nM"],
  ["NS(=O)(=O)c1ccc(Cc2c(-c3ccc(F)c(CC4CC4)c3)nn(-c3nc(C(=O)O)cs3)c2CC2CC2)cc1F [Compound 378]", "< 100 nM"],
  ["NS(=O)(=O)c1ccc(Cc2cnn(-c3nc(C(=O)O)cs3)c2-c2cccnc2)cc1 [Compound 475]", "100 to 1000 nM"],
  ["NS(=O)(=O)c1ccc(Cc2cn(-c3nc(C(=O)O)cs3)nc2-c2cccc(OCC3CCOC3)c2)cc1 (stereo not shown) [Compound 461]", "< 100 nM"]
]}

Could you now look at the following compound, please?
# input compound: CC#Cc1cc(-c2nn(-c3nc(C(=O)O)cs3)c(CC3CC3)c2Cc2cccc([S+](N)(=O)[O-])c2)ccc1F [Compound 422] ; wanted: its IC50
< 100 nM

---

System Name: Human LDHA (Homo sapiens (Human), UniProt P00338)
Test Name: human LDHA primary biochemical assay (resazurin/diaphorase coupled, fluorescence)
Assay Conditions: read-out: Inhibitory activity IC50
Parameter Measured: IC50

Please review the entries below; each comes with its answer.
{"columns": ["Compound", "IC50"],
 "data": [
  ["NS(=O)(=O)c1ccc(Cc2cn(-c3nc(C(=O)O)cs3)c3ccc(F)cc23)cc1 [Compound 31]", "0.1 to 1 µM"],
  ["CC(C)c1ccc(-c2cc(-c3c(Cc4ccc([S+](N)(=O)[O-])cc4)c(CC4CC4)nn3-c3nc(C(=O)O)cs3)ccc2F)cc1 [Compound 305]", "1 to 57 µM"],
  ["NS(=O)(=O)c1ccc(Cc2cn(-c3nc(C(=O)O)cs3)c3cc(C(F)(F)F)ccc23)cc1 [Compound 197]", "0.1 to 1 µM"],
  ["O=C(O)c1csc(-n2nc(-c3ccc(F)c(F)c3)cc2Cc2nnn[nH]2)n1 [Compound 75]", "1 to 57 µM"],
  ["NS(=O)(=O)c1ccc(Cc2cn(-c3nc(C(=O)O)cs3)c3cccc(CN4CCOCC4)c23)cc1 [Compound 193]", "0.1 to 1 µM"],
  ["Cc1csc(-c2cc(-c3c(Cc4ccc(S(N)(=O)=O)cc4F)c(CC4CC4)nn3-c3nc(C(=O)O)cs3)ccc2F)c1 [Compound 222]", "> 57 µM"],
  ["Cc1ccc(-c2cc(-c3nn(-c4nc(C(=O)O)cs4)c(CC4CC4)c3Cc3ccc(S(N)(=O)=O)cc3F)ccc2F)s1 [Compound 233]", "< 0.1 µM"],
  ["NC(=O)c1csc(-n2cc(Cc3ccc(S(N)(=O)=O)cc3)c(-c3ccccc3)n2)n1 [Compound 79]", "1 to 57 µM"]
]}

Find the recorded IC50 belonging to Cc1ncc(-c2cc(-c3nn(-c4nc(C(=O)O)cs4)c(CC4CC4)c3Cc3ccc(S(N)(=O)=O)c(F)c3)ccc2F)s1 [Compound 232] and report it.
< 0.1 µM

What would you report for NS(=O)(=O)c1ccc(Cc2cn(-c3nc(C(=O)O)cs3)c3ccccc23)cc1 [Compound 196] ?
0.1 to 1 µM

Now try CCOC(=O)c1csc(-n2nc(-c3ccccc3)c(Cc3ccc(S(N)(=O)=O)cc3)c2C(F)(F)F)n1 [Compound 77] .
1 to 57 µM

NS(=O)(=O)c1ccc(Cc2c(C3CC3)nn(-c3nc(C(=O)O)cs3)c2-c2cccc(-c3ccccc3)c2)c(F)c1 [Compound 182] ?
1 to 57 µM

Another compound to check: Cc1ccc(-c2cc(-c3c(Cc4ccc([S+](N)(=O)[O-])c(F)c4)c(CC4CC4)nn3-c3nc(C(=O)O)cs3)ccc2F)cc1 [Compound 287]
1 to 57 µM

Now give it for NS(=O)(=O)c1ccc(Cc2cn(-c3nc(C(=O)O)cs3)c3ncccc23)cc1 [Compound 26] too.
0.1 to 1 µM

Same question, N[S+](=O)([O-])c1ccc(Cc2c(CC3CC3)nn(-c3nc(C(=O)O)cs3)c2-c2ccc(F)c(-c3ccc(F)cc3)c2)c(F)c1 [Compound 308] this time
1 to 57 µM

Repeat with Cc1noc(C)c1-c1cc(-c2nn(-c3nc(C(=O)O)cs3)c(CC3CC3)c2Cc2ccc(S(N)(=O)=O)c(F)c2)ccc1F [Compound 219]
< 0.1 µM

Next compound up: NS(=O)(=O)c1ccc(Cc2nn(-c3nc(C(=O)O)cs3)c3ccccc23)cc1 [Compound 35]
1 to 57 µM

// query: NS(=O)(=O)c1ccc(Cc2c(C3CC3(F)F)nn(-c3nc(C(=O)O)cs3)c2-c2cccc(-c3ccccc3)c2)cc1 (stereo not shown) [Compound 206]
1 to 57 µM

# iterate: NS(=O)(=O)c1ccc(Cc2cn(-c3nc(C(O)C(F)(F)F)cs3)nc2-c2ccccc2)cc1 (stereo not shown) [Compound 154]
0.1 to 1 µM

NS(=O)(=O)c1ccc(Cc2cn(-c3nc(C(=O)O)cs3)c3ccc(Cc4ccccc4F)cc23)cc1 [Compound 194] , same question.
0.1 to 1 µM

Then this compound: NS(=O)(=O)c1ccc(Cc2cn(-c3nc(C(=O)O)cs3)c3ccc(OC4CCOCC4)cc23)cc1 [Compound 36]
0.1 to 1 µM

What do you get for NS(=O)(=O)c1ccc(Cc2c(-c3cccc(-c4ccccc4)c3)nn(-c3nc(-c4nnn[nH]4)cs3)c2O)cc1 [Compound 72] ?
1 to 57 µM

Try this compound next: Cc1ccc(-c2cc(-c3c(Cc4ccc([S+](N)(=O)[O-])cc4)c(CC4CC4)nn3-c3nc(C(=O)O)cs3)ccc2F)cc1 [Compound 283]
1 to 57 µM

What do you get for NS(=O)(=O)c1ccc(Cc2cn(-c3nc(C(=O)O)cs3)c3ccc(C(=O)N4CCOCC4)cc23)cc1 [Compound 30] ?
1 to 57 µM

How about NS(=O)(=O)c1ccc(Oc2c(-c3ccccc3)nn(-c3nc(C(=O)O)cs3)c2C2CCCC2)cc1 [Compound 171] ?
0.1 to 1 µM

Entry NS(=O)(=O)c1ccc(Oc2c(-c3ccccc3)nn(-c3nc(C(=O)O)cs3)c2O)cc1 [Compound 24] please
0.1 to 1 µM

// repeat for NS(=O)(=O)c1ccc(Cc2cn(-c3cc(C(=O)O)cs3)nc2-c2ccccc2)cc1 [Compound 213] and report
1 to 57 µM

Field entry: CCOC(=O)c1csc(-n2nc(-c3ccc(F)c(F)c3)c(Cc3ccc(S(N)(=O)=O)cc3)c2N)n1 [Compound 123]
1 to 57 µM
